# Test system: MS2 coat protein
# test-name: apparent KD of MS2 coat protein; designed switch direction (-1 OFF switch, 1 ON switch): -1; higher = weaker reporter binding
# conditions: Eterna round: R95; input ligand: FMN 200 uM
Please note: TRUE applies when apparent KD of MS2 coat protein is 40 nM or greater, and FALSE applies otherwise.

Below are worked cases with known answers.
residue-codes	target-or-system	answer-label
UAAAAUAGUGUGAGGAUAUGCUGGUCCUUGGAUCAGCAGAAGGCACAUGAGGAUCACCCAUGUAGUUAAUAAUA [Mat - Exclusion 4 - JL Mod - D25] (puzzle: Brourd's mod of Exclusion 4)	MS2 coat protein	TRUE
GGUACUAUCACCUGAGUGGUAGUGCAAUAAGCUUGUGAUACAUGAGGAUCACCCAUGUCCUCAUUUGCUCGUCUUAU [JL-sv3-2.26 JL mod] (puzzle: Sensor v3, turn-off variant 2)	MS2 coat protein	TRUE
AAAAUGCAAGGAUAUCGCGAUAAAUACAUGAGGAUCACCCAUGUGAUUACGUGGGCACGGCGAGAAGGUGCUAAAA [Amadius] (puzzle: Exclusion 5)	MS2 coat protein	TRUE
CGUGACUCAGGAUAUCUAUAAUAUCACAUGAGGAUCACCCAUGUCCAGCGAAAGCUGGAGAGAGAAGGGAGUCACG [Fiskers Ex 5 - 36] (puzzle: Exclusion 5)	MS2 coat protein	TRUE
GGAGAGUCAGGAUAUCGAAGGUAGUGGAGAGGAGUGUGGUACGAGAAGGGACAUGAGGAUCACCCAUGUAGGUG [JR_Exclusion4)Sub010] (puzzle: Exclusion 4)	MS2 coat protein	TRUE

Would you kindly look at the next entry?
Task: Is apparent KD of MS2 coat protein for GGUCAAGAACAGCUCCGCGCUGCCCUUGACCGCUCAUUUACAUGAGGAUCACCCAUGUUUUUUGCUUGUCUUGUUUC [Bebiesgebe] (puzzle: Sensor v3, turn-off variant 2) at or above 40 nM?
Output: FALSE

* * *

# System: MS2 coat protein
# test-name: apparent KD of MS2 coat protein; higher = weaker reporter binding
# conditions: Eterna round: R107; input ligand: tryptophan 2.4 mM
test-readout: apparent KD of MS2 coat protein (nM)
Numbers only, in nM.

// known answers, use as guide
residue-codes	test-readout	quantitative-readout
UGUAUGGACUGAAGGAGCGCCUCAAAAUAACUUGAGGAACACCCAAGUAAGGCGAAAGCCGGGCAGGUAGGUCGCAGUCCAUACU [ArgBX 3]	apparent KD of MS2 coat protein	34.6
GCGAUGGAGCGAAGGAGCGUGCUGGUACAUGAGGAUCACCCAUGUGAGUCGCAUCGCUAAGCACAGGUAGGUCGCGCUCCAUCGC [EAB NP+V+V2 #10]	apparent KD of MS2 coat protein	66.5
AACGUAUACAGAAGGAGCGUGAUUUGUGUUACUCAUUCAUAUACAUGAGGAUCACCCAUGUCACAGGUAGGUCGCUGUAUUCGUA [JR_ExcArginiB_Sub022]	apparent KD of MS2 coat protein	53.8
UGUGCAGGAUGUGUAAAAGGUCUUGGGCAUCGAGGACCGGUACGGCCGCCACUCGGCUGUACAUGAGGAUCACCCAUGUCAGGGU [#1 Same State - Tryptophan A Attempt #21 (HarryS)]	apparent KD of MS2 coat protein	737
GGGAGGUAGGCGGCCGCCACUGAUUUUCAUAUAUAUAUAACAUGAGGAUCACCCAUGUAGAUAUACAGGACCGGGCCUAUUUUUU [aaaF]	apparent KD of MS2 coat protein	14.2

Okay, now this sequence:
Task: Dear colleague, please send me the reported apparent KD of MS2 coat protein for UGACAUUGCUCAGAUACCAGACAUGAGCAUCAGCCAUGUACCAAGAGUACAUGUUAAAGUGUCCCUUGGCAGCUGAGCAAUGUCU [Mod of Eli's TheoBX5 #AlternateMS2 v3] when you can.
Output: 72

* * *

# Test system: MS2 coat protein
# test-name: apparent KD of MS2 coat protein; higher = weaker reporter binding
# conditions: Eterna round: R107; input ligand: tryptophan 2.4 mM
test-readout: apparent KD of MS2 coat protein (nM)
Numbers only, in nM.

residue-codes	apparent KD of MS2 coat protein, nM
AAUUCCUAACAUGAGGAUCACCCAUGUGAAGGAGCGCCGAAUAAGGCAGGUAGGUCGCACAUGGAACUGCUACGAAAGUAGAAAA [XArg-A 4 V2mod]	18.8
CACAUGAGGAUCACCCAUGUGUAAUAUGAAGGAGCGUCGGAAAUGACAGGUAGGUCGCAUGAAAUGCAAGUGUGUGAGGUUGUGA [EAA NP+V+V2 #12]	10.9
ACGAGACGUCUGGAUACCAGCCCAGCGAUAAACAUGAGGAUCACCCAUGUCAAACCACCCGGCCCUUGGCAGCCACGUACCUCAC [theeternabot_sameState_MS2_Theo_B_10]	14.9

# per-item lookup of apparent KD of MS2 coat protein; items listed below
1. GACAUGAGGAUAGAUACCAGCGACAUGAGGAUCACAUGAGGAUCACCCAUGUGUAGUAUACGCCCUUGGCAGCUAACAUGAGGAU [Same State Theophylline B 3]
2. UUUACAUGAGGAUCACCCAUGUGCCAUGAUACCAGACAUGAAAAUGUCCCUUGGCAGCAUGAGUGAUAUGCGUCGGAAACGACGC [Jundrov]
3. ACAUGAGGAUCACCCAUGUCAGGGCACGAUACCAGCUGAUCCGGUGGCCCUUGGCAGCGUGACGUUUGGUCCCGCGGAUCACACG [xxmullin]

Output:
[68.1, 194, 404]

* * *

# System: MS2 coat protein
# test-name: apparent KD of MS2 coat protein; designed switch direction (-1 OFF switch, 1 ON switch): -1; higher = weaker reporter binding
# conditions: input ligand: FMN 200 uM
test-readout: apparent KD of MS2 coat protein (nM)
One number for each entry, in nM.

Reference set, count: 4
residue-codes	test-readout	quantitative-readout
AGCUUUUUGCUCGUCUUAUACAUGAGGAUCACCCAUGUAUUGGACCACAUCGAUAGAUGUGGACCAAGAAGCAUGGG [Omdei Mir OFFv1 C1] (Eterna round: R97, puzzle: Sensor, turn-off variant 1)	apparent KD of MS2 coat protein	195
ACAAGCUCUGUGGGUGGGUACAUGAGGAUCACCCAUGUUUUGCUCGUCUUGUGGGCCCGGGCCCGCGGCCCGGGCCC [-41.4, -69.7, A 12%] (Eterna round: R97, puzzle: Sensor, turn-off variant 1)	apparent KD of MS2 coat protein	604
ACAUGUUGUCCAUGAUAUUACAUGAGGAUCACCCAUGUUAUGGCGAUUUUGAUGUGUAAGUUUGUUGCUCGUCUUAU [JR_STOV1_Sub061] (Eterna round: R97, puzzle: Sensor, turn-off variant 1)	apparent KD of MS2 coat protein	19.2
UUUUACAGGCUUAGAUCCUACAUGAGGAUCACCCAUGUGGAGGCGUGUCGUGAGACAUGCCUCUAAGCUCGUCUUGU [JL TOV1 3.74] (Eterna round: R97, puzzle: Sensor, turn-off variant 1)	apparent KD of MS2 coat protein	86.2

I have 4 sequences here; please give me apparent KD of MS2 coat protein for each one.
1. UGCUACGGAGGAUAUACAUGAGGAUCACCCAUGUGAUAGAUUAUCGCGAGAGCGUAAUGUAGAAGGCCGUAGCU [jl-ex3-4.12 jl mod] (Eterna round: R97, puzzle: Exclusion 3)
2. UAUUAGCAAGCGAGAUCCGACAUGAGGAUCACCCAUGUGCUCGUCUUAUAAGGGAGGGAGGGAAAACCCUCCCUCCC [Elimod 9 - Jieux - Sensor, turn-off variant 1] (Eterna round: R97, puzzle: Sensor, turn-off variant 1)
3. UUUAACGAUGAGGAUAUAUGAUAUCAAAGCAUCAUAGAAGGCAUCACAUGAGGAUCACCCAUGUGAUCUUCUUU [Mat - Exclusion 6 - JL Mod - D29] (Eterna round: R97, puzzle: Exclusion 6)
4. AUUAAACAUGUAGGAUAUGCAUAGCAAAGCUAUGCAGAAGGACAUGAGGAUCACCCAUGUAAAAGCGUCUGAGUACAGAUGCAA [Mat - Exclusion NG 1 - Mod of JL - D89] (Eterna round: R96, puzzle: Exclusion NG 1)

Output:
1. 506
2. 19.5
3. 69.6
4. 402

Task: // output apparent KD of MS2 coat protein; input AUAAAUCAUGUAGGAUAUGCGUGGCGAAGCUAUGCAGAAGGACAUGAGGAUCACCCAUGUUCUUCCGUCUGCGUACAGACGGAA [Mat - Exclusion NG 1 - Mod of JL - D39] (Eterna round: R96, puzzle: Exclusion NG 1) ; system MS2 coat protein
Output: 297

* * *

# Tested on: MS2 coat protein
# test-name: apparent KD of MS2 coat protein, switch ON state; designed switch direction (-1 OFF switch, 1 ON switch): 1; higher = weaker reporter binding
# conditions: FMN input: 0 or 200 uM; Eterna round: R93 (includes R88 designs)
test-readout: apparent KD of MS2 coat protein
I'd appreciate it if you included the unit after the number.

I would be grateful if you could provide apparent KD of MS2 coat protein for each of the following entries.
1. GAAGACAUAGUUCAGGAUAUAUGAAUAGUCACAUGAGGAUCACCCAUGUCCAUUUAUAUGGGCACAUAGAAGGGAGGUAGUUAUC [SameState2 Malc#25]
2. AUGAAAGUAACACAGGAUAUCGAGGAUACAACAUGAGGAUCACCCAUGUACAUACGAACGUAUAACGAGAAGGGUGGAUGAUCUUC [ss2]
3. GACAGACAUGAGGAUCACCCAUGUAGAAUUAUGGGAGGAUAUACAAAGACGAGAGUCAGAGUAGAAGGCCUAGGAA [salish99-ss1-167]
4. GAAAAACAUGAGGAUCACCCAUGUGAUAACAUGGGAGGAUAUACAAGGACGAUAGUCAAAGUAGAAGGCCUAAAAG [Garnet 61]
5. AAAUAAAGGACUGAGGAUAUACCACAUGAAACAUGAGGAUCACCCAUGUUGAAAAACAGAGGGUGGUAGAAGGCAGUCCACAAAC [Same State 2.5d ( so lets mod hyphema)]
6. AGCACGUGAUUGGAGGAUAUGUAGUAAGCAACAUGAGGAUCACCCAUGUCUGAGGCUGAAAAGCAGCAGAAGGCCGAUACAACCA [SS2-1.5]

Output:
1: 618 nM; 2: 140 nM; 3: 23.2 nM; 4: 289 nM; 5: 12.5 nM; 6: 18.2 nM
